# SYSTEM NAME: T1, HLA A*0201 presenting HCMV pp65 peptide […] on cells (human HLA-A*02:01 and B2M; HCMV pp65 …, strain)
# T1 construct: copies: + +
# EXPERIMENT DESCRIPTION: flow cytometry on cells
# STUDY CONDITIONS: one partner purified

BINDER	binding result
biotinylated Fab A9 (Fab, V domains shown, source: E. coli TG1, biotinylated in vivo, purified (IMAC, Talon beads)) VH: EVQLVQSGAEVRNPGASVKVSCKASGYTFTSHGINWLRQAPGQGLEWMGWISAYSGNTNYAQNLQDRVSMTTDTSTSTAYMELRSLRSDDTAVYYCARDFGKWDLPMYGMDVWGQGTTVTVSS VL: QSVLTQPPSVSAAPGQRVTISCSGSSSDIGKSGKNYVAWYQQLPGMAPKLLIHDTIKRPSGIPDRFSASKSGTSATLDITGLQTGDEGDYYCGTWNNNLSAYVFGTGTTITVL	binds
